The origin of these recorded values is patent US11059795B2.

Experiment: Hepatocyte stability assay, mouse hepatocytes
Format: in vitro ADME
Settings: cryopreserved hepatocytes, read-out: Hepatocytes T½ (min) Mouse
# half-life at 1 μM per entry

Check out these entries, answers already filled in.
1. CC(C)(c1ccc(OCc2coc(NS(C)(=O)=O)n2)cc1)c1cc(Cl)c(OCCCl)c(Cl)c1 [Compound A38]	> 360 min
2. CC(C)(c1ccc(OCc2ncc(S(C)(=O)=O)s2)cc1)c1cc(Cl)c(OCCCl)c(C#N)c1 [Compound A93]	> 360 min

Any idea what its half-life at 1 μM is? The compound is CC(C)(c1ccc(OCc2ccnc(NS(C)(=O)=O)n2)cc1)c1cc(Cl)c(OCCCl)c(C#N)c1 [Compound A109] > 360 min

* * *

Assay: In vivo pharmacokinetics in plasma after oral gavage (PO) in male CD-1 mice
Details: mouse; single PO dose 5 mg/kg, male CD-1 mice, plasma
Procedure: The purpose of this study is to determine the pharmacokinetics of the tested compounds in plasma, following oral gavage administration (PO) to male CD-1 mice. Animal Husbandry: Animals were group housed during acclimation and the study. […] Temperature and relative humidity were monitored daily. […] Dose Administration: the dose formulations were administered via oral gavage per facility SOPs. The dose volume were determined by the animals' body weight collected on the morning of dosing day […]
outcome.measure: Tmax (min)

Check out these entries, answers already filled in.
1) CC(C)(c1ccc(OCc2ncc(S(C)(=O)=O)o2)cc1)c1cc(Cl)c(OCCCl)c(Cl)c1 [Compound A66]	48
2) CC(C)(c1ccc(OCc2ncc(S(C)(=O)=O)s2)cc1)c1cc(Cl)c(OCCCl)c(C#N)c1 [Compound A93]	48
3) CC(Oc1ccc(C(C)(C)c2cc(Cl)c(OCCCl)c(Cl)c2)cc1)c1ocnc1S(C)(=O)=O (stereo not drawn) [Compound A35]	30

a: CC(C)(c1ccc(OCc2ccnc(NS(C)(=O)=O)n2)cc1)c1cc(Cl)c(OCCCl)c(C#N)c1 [Compound A109]
b: CC(C)(c1ccc(OCc2ocnc2S(C)(=O)=O)cc1)c1cc(Cl)c(OCCCl)c(C#N)c1 [Compound A28]
// pick min by Tmax: a , b Selection: enter the item's label. b
(b: 30 min, a: 132 min)

* * *

# hepatocyte CLint at 1 μM per entry
Assay: Hepatocyte stability assay, mouse hepatocytes
Assay type: in vitro ADME
Details: mouse, cryopreserved hepatocytes, 1 μM compound, 0.5 million cells/mL, 37° C., read-out: MH +/− NADPH: Clint (μL/min/million cells)

Check out these entries, answers already filled in.
1. C[C@@H](Oc1ccc(C(C)(C)c2cc(Cl)c(OCCCl)c(C#N)c2)cc1)c1ccnc(NS(C)(=O)=O)n1 (single isomer, unassigned)	< 4 µL/min/1e6 cells
2. CC(C)(c1ccc(OCc2ccnc(NS(C)(=O)=O)n2)cc1)c1cc(Cl)c(OCCCl)c(C#N)c1	< 4 µL/min/1e6 cells
3. CC(Oc1ccc(C(C)(C)c2cc(Cl)c(OCCCl)c(C#N)c2)cc1)c1ocnc1S(C)(=O)=O (stereo not shown)	≥ 18 µL/min/1e6 cells
4. CC(C)(c1ccc(OCc2coc(N)n2)cc1)c1cc(Cl)c(OCCCl)c(C#N)c1	4 to 18 µL/min/1e6 cells
5. CC(C)(c1ccc(OCc2cnc(NS(C)(=O)=O)o2)cc1)c1cc(Cl)c(OCCCl)c(C#N)c1	≥ 18 µL/min/1e6 cells
6. CC(C)(c1ccc(NC(=O)c2coc(S(C)(=O)=O)n2)cc1)c1cc(Cl)c(OCCCl)c(C#N)c1	≥ 18 µL/min/1e6 cells

Now consider a different molecule.
Any idea what its hepatocyte CLint at 1 μM is? The molecule is CC(C)(c1ccc(OCc2ccnc(N3CCCCS3(=O)=O)n2)cc1)c1cc(Cl)c(OCCCl)c(C#N)c1 4 to 18 µL/min/1e6 cells
